- System: MV4-11 (MLL-AF4) cells
- testDescription: Cell death / cell kill in MV4-11 cells (Annexin V/7-AAD flow cytometry, CTG, cell count, Incucyte caspase 3/7)
- Format: cell-based
- testParameters: Homo sapiens, MV4-11; read-out: sensitivity of MV4-11 to EPZ-5676
pIC50: −log10 of the molar value.
measuredMetric: pIC50

## Task # get_value(readout='pIC50', item= CC(C)N(C[C@H]1O[C@@H](n2cnc3c(N)ncnc32)[C@H](O)[C@@H]1O)[C@H]1C[C@@H](CCc2nc3cc(C(C)(C)C)ccc3[nH]2)C1 )
## Result ≥ 5.52
